Test: Micelle morphology by negative-stain TEM
Format: physicochemical
Conditions: negative-stain TEM, 5 µM
RESULT_TYPE: Cylinder length

VIP(^SVIP)-KEKEKKKK-CONH2 [Palm2K-^SVIP-(KE)2K4]	100 - 400 nm

We now examine a further substance.
Data request: Which Cylinder length is listed for VIP(^SVIP)-KEKEKEKE-CONH2 [PalmK-^SVIP-(KE)4] ?
Data returned: 1000 - 9000 nm

====

Assay: Micelle morphology by negative-stain TEM
Assay type: physicochemical
Settings: negative-stain TEM, 5 µM
RESULT_TYPE: Cylinder length

VIP(^SVIP)-KEKEEEEE-CONH2 [Palm2K-^SVIP-(KE)2E4]	50 - 250 nm
VIP(^SVIP)-KEKEKEKE-CONH2 [PalmK-VIP-(KE)4]	1000 - 9000 nm
VIP(^SVIP)-KEKEEEEE-CONH2 [Palm2K-VIP-(KE)2E4]	20 - 300 nm

Please turn your attention to the following entry.
Data request: Fill in: Cylinder length of VIP(^SVIP)-KEKEKEKE-CONH2 [Palm2K-VIP-(KE)4] is ___
Data returned: 100 - 700 nm
